Cited source: patent US7138411B2

Entries and their pIC50 values follow.
TARGET_SYSTEM: COX-2 (UniProt P35354)
TEST_METHOD_NOTES: Assay for COX-2 activity (PGE2 ELISA)
CONDITION_PARAMETERS: read-out: COX-2 IC50; 10–20 minutes pre-incubation, reaction stopped after ten minutes, pH 8.0
pIC50: −log10 of the molar value.
MEASUREMENT_LABEL: pIC50

INSERT INTO measurements (molecule, experimental_value) VALUES
  ('O=C(O)C1=Cc2cc(Cl)c(Sc3ccccc3)cc2OC1C(F)(F)F (centres unmarked)', '> 7.00'),
  ('O=C(O)C1=Cc2cc(Oc3ccccc3)ccc2OC1C(F)(F)F (centres unmarked)', '> 7.00'),
  ('O=C(O)C1=Cc2cc(-c3ccc(Br)cc3)ccc2OC1C(F)(F)F (centres unmarked)', '> 7.00'),
  ('COc1ccc(Oc2cc3c(cc2Cl)C=C(C(=O)O)C(C(F)(F)F)O3)cc1 (centres unmarked)', '> 7.00'),
  ('O=C(O)C1=Cc2cc(Cl)c([S+]([O-])c3ccc(Cl)cc3)cc2OC1C(F)(F)F (centres unmarked)', '< 4.00');
